- Assay Target: recombinant DYRK1A kinase (Homo sapiens (Human))
- Procedure Summary: DYRK1A kinase assay (Ser/Thr 18 peptide Z-lyte FRET assay)
- Assay Setup: DYRK1A kinase activity; 15 μM ATP, 1 h room temperature; method text calls the value IC50
Measurement Name: EC50 (nM)

>  <Molecule>
CN1CCN(c2cc(Nc3ncc4c(-c5ccc6c(c5)CCCO6)c[nH]c4n3)ccn2)CC1 [Compound 1768]

>  <Endpoint Unit>
nM

>  <EC50>
34.8

$$$$
>  <Molecule>
CN1CCC(Nc2ncc3c(-c4ccc5c(c4)OC(C)(C)CC5=O)c[nH]c3n2)CC1 [Compound 1801]

>  <Endpoint Unit>
nM

>  <EC50>
66.9

$$$$

1: CC(C)(C)CNc1ncc2c(-c3ccc4ncccc4c3)c[nH]c2n1 [Compound 1867]
2: C[C@]1(O)CC[C@H](Nc2ncc3c(-c4ccc5nccn5c4)c[nH]c3n2)CC1 [Compound 2236]
3: COc1nc(N[C@@H]2CCOC[C@H]2F)nc2[nH]cc(-c3ccn4nccc4c3)c12 [Compound 2316]
4: C[C@]1(O)CC[C@@H](Nc2ncc3c(-c4ccc5ncnn5c4)c[nH]c3n2)CC1 [Compound 3018]
Input line: # desc sort on EC50 across 4 molecules State the ranking by listing the labels in the requested order.
Output line: 3, 1, 2, 4
(3: 160 nM, 1: 69.7 nM, 2: 15 nM, 4: 4.4 nM)

P: CC(C)CNc1ncc2c(-c3cc(F)c4nccn4c3)c[nH]c2n1 [Compound 196]
Q: COc1nc(N[C@H]2CC[C@@H](O)CC2)nc2[nH]cc(-c3ccn4nccc4c3)c12 [Compound 2207]
Input line: Select one. Lower EC50: P or Q # reply format: chosen label
Output line: Q
(Q: 1.7 nM, P: 60.5 nM)

A: FC1(F)CCC(Nc2ncc3c(-c4ccc5nccnc5c4)c[nH]c3n2)CC1 [Compound 1928]
B: CN(C(=O)c1cnn2ccc(-c3c[nH]c4nc(C5CC5)ncc34)cc12)C1CC(F)(F)C1 [Compound 1379]
C: COc1nc(NC2CC3(COC3)C2)nc2[nH]cc(-c3ccn4nccc4c3)c12 [Compound 3321]
D: Cc1nc2ccc(-c3c[nH]c4nc(NCC(C)(C)F)ncc34)cc2s1 [Compound 24]
Input line: rank_up(items): orders items by reported EC50 in ascending numerical order. List the labels, following the order given in the request.
Output line: A, D, C, B
(A: 3.7 nM, D: 14.5 nM, C: 37.5 nM, B: 79.8 nM)

I: CN1CCC(NC(=O)c2cnn3ccc(-c4c[nH]c5nc(NCC6(F)CCCCC6)ncc45)cc23)CC1 [Compound 1535]
II: Cn1nnc2ccc(-c3c[nH]c4nc(NCC(C)(F)F)ncc34)cc21 [Compound 823]
Input line: Please compare: I and II . Report which one has the smaller EC50 value. Use the label to indicate which entry you chose.
Output line: I

1: c1cnc2ccc(-c3ncc4c(-c5ccc6ncccc6c5)c[nH]c4n3)cc2c1 [Compound 1896]
2: COc1nc(NC2CCC(F)(F)CC2)nc2[nH]cc(-c3ccc4nnn(CC(F)F)c4c3)c12 [Compound 2198]
3: Cn1nnc2ccc(-c3c[nH]c4nc(N[C@H]5CC[C@@](C)(O)CC5)ncc34)cc21 [Compound 2191]
Input line: Parameters: sort_field (EC50), sort_dir (desc). Thanks in advance for listing the labels in the requested order.
Output line: 2, 1, 3

====

- Assay Target: recombinant DYRK1A kinase (Homo sapiens (Human))
- Procedure Summary: DYRK1A kinase assay (Ser/Thr 18 peptide Z-lyte FRET assay)
- Assay Setup: DYRK1A kinase activity; 15 μM ATP, 1 h room temperature; method text calls the value IC50
- Description: Representative compounds were screened using the assay procedure for DYRK1A kinase activity as described below. Each compound was dissolved in DMSO as a 10 mM stock and used to prepare compound source plates. […] The Emission ratio (Em) was calculated as a ratio of the coumarin (C) emission signal (at 445 nm)/Fluorescein (F) emission signal (at 520 nm). The percent phosphorylation was then calculated using the following formula: [1−((Em ratio×F100%)−C100%)/((C0%−C100%)+(Em ratio×(F100%−F0%)))]. […]
pEC50: −log10 of the molar value.
Measurement Name: pEC50

I: CC(C)(F)CNc1ncc2c(-c3ccc4nccn4c3)c[nH]c2n1
II: COc1nc(N[C@H]2CC[C@@H](OC)CC2)nc2[nH]cc(-c3ccc4nccnc4c3)c12
Input line: Lab note: check whether I or II has the lower measured pEC50. Lab log: write the label of the selected item as the result.
Output line: I

====

- Assay Target: recombinant DYRK1A kinase (Homo sapiens (Human), UniProt Q13627)
- Procedure Summary: DYRK1A kinase assay (Ser/Thr 18 peptide Z-lyte FRET assay)
- Assay Setup: DYRK1A kinase activity; 15 μM ATP, 1 h room temperature; method text calls the value IC50
pEC50: −log10 of the molar value.
Measurement Name: pEC50

>  <Compound>
COc1nc(NC2CCC(F)(F)CC2)nc2[nH]cc(-c3ccc4nc(C)n(CC(F)F)c4n3)c12

>  <Assay Target>
recombinant DYRK1A kinase (Homo sapiens (Human), UniProt Q13627)

>  <pEC50>
6.60

$$$$
>  <Compound>
COc1nc(NC2CCC3(CC2)OCCO3)nc2[nH]cc(-c3cc(F)c4nccn4c3)c12

>  <Assay Target>
recombinant DYRK1A kinase (Homo sapiens (Human), UniProt Q13627)

>  <pEC50>
8.72

$$$$
>  <Compound>
COc1nc(N[C@@H]2CCCOC2)nc2[nH]cc(-c3ccn4nccc4c3)c12

>  <Assay Target>
recombinant DYRK1A kinase (Homo sapiens (Human), UniProt Q13627)

>  <pEC50>
7.76

$$$$
>  <Compound>
CC(C)(C)Cc1ncc2c(-c3cnc4nccn4c3)c[nH]c2n1

>  <Assay Target>
recombinant DYRK1A kinase (Homo sapiens (Human), UniProt Q13627)

>  <pEC50>
6.82

$$$$
>  <Compound>
CC(C)(C)CNc1ncc2c(-c3cc(F)c4nccn4c3)c[nH]c2n1

>  <Assay Target>
recombinant DYRK1A kinase (Homo sapiens (Human), UniProt Q13627)

>  <pEC50>
7.12

$$$$
>  <Compound>
COc1nc(CC(C)C)nc2[nH]cc(-c3cc(F)c4nc(C)n(C(C)C)c4c3)c12

>  <Assay Target>
recombinant DYRK1A kinase (Homo sapiens (Human), UniProt Q13627)

>  <pEC50>
8.04

$$$$

A: C[C@]1(O)CC[C@H](Nc2ncc3c(-c4cc(F)c5nccn5c4)c[nH]c3n2)CC1
B: COc1nc(NCC(C)(C)F)nc2[nH]cc(-c3ccc4nnn(C)c4c3)c12
C: C[C@]1(O)CC[C@@H](Nc2ncc3c(-c4ccn5nccc5n4)c[nH]c3n2)CC1
D: c1cn2cc(-c3c[nH]c4nc(CC5CCC5)ncc34)cnc2n1
E: COc1nc(N[C@H]2CC[C@@H](OC)CC2)nc2[nH]cc(-c3ccn4nccc4c3)c12
Input line: Arrange these compounds by their pEC50, starting with the largest number. Please list the labels according to the requested order.
Output line: C, A, D, B, E

====

- Assay Target: recombinant DYRK1A kinase (Homo sapiens (Human))
- Procedure Summary: DYRK1A kinase assay (Ser/Thr 18 peptide Z-lyte FRET assay)
- Assay type: biochemical
- Assay Setup: DYRK1A kinase activity; 15 μM ATP, 1 h room temperature; method text calls the value IC50
pEC50: −log10 of the molar value.
Measurement Name: pEC50

Answered cases to consult:
>  <Smiles Representation>
CNc1nc(N[C@H]2CC[C@](C)(O)CC2)nc2[nH]cc(-c3ccn4nccc4n3)c12

>  <Assay Target>
recombinant DYRK1A kinase (Homo sapiens (Human))

>  <Measurement Name>
pEC50

>  <Quantitative Readout>
8.47

$$$$
>  <Smiles Representation>
FC(F)(F)CCc1ncc2c(-c3cnc4nccn4c3)c[nH]c2n1

>  <Assay Target>
recombinant DYRK1A kinase (Homo sapiens (Human))

>  <Measurement Name>
pEC50

>  <Quantitative Readout>
8.03

$$$$
>  <Smiles Representation>
FC1(CNc2ncc3c(-c4ccc5ncnn5c4)c[nH]c3n2)CCC1

>  <Assay Target>
recombinant DYRK1A kinase (Homo sapiens (Human))

>  <Measurement Name>
pEC50

>  <Quantitative Readout>
8.29

$$$$

I: CN1CCN(c2ccc(Nc3ncc4c(-c5ccc6nccnc6c5)c[nH]c4n3)cn2)CC1
II: O=C(NC1CCOCC1)c1cnn2ccc(-c3c[nH]c4nc(C5CC5)ncc34)cc12
III: CN1CCC(NC(=O)c2cnn3ccc(-c4c[nH]c5nc(C6CCC6)ncc45)cc23)CC1
IV: COc1nc(N[C@H]2CC[C@@H](OC(F)(F)F)CC2)nc2[nH]cc(-c3ccc4nnn(C)c4c3)c12
V: COc1nc(N[C@H](C)C(F)(F)F)nc2[nH]cc(-c3ccn4nccc4c3)c12
Input line: // ranking: key=pEC50, reverse=True List each label, following the requested order.
Output line: I, II, V, III, IV
